Origin of values: PubChem BioAssay (EPA / NIEHS)

- procedure text: CCTE_Shafer_MEA_acute_firing_rate_mean: CCTE's Neural Acute Assay for Mean Firing Rate, Shafer Lab (AID 2284009);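 further: analyzed for loss of signal so actives lower firing rate relative to DMSO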
Calls of active or inactive are those of the source. How the source made its calls: active means hit-call score of the fitted dose curve at least 0.9, where 1 is the maximum; inactive means score below 0.9.
Please reply with one of these outcomes: 1 (yes) for active, 0 (no) for inactive

// below: answered compounds
[
  {
    "compound": "COc1ccc(C(=O)c2ccccc2O)c(O)c1",
    "class label": "1 (yes)"
  },
  {
    "compound": "CN(C)C(=O)C(CCN1CCC(O)(c2ccc(Cl)cc2)CC1)(c1ccccc1)c1ccccc1",
    "class label": "1 (yes)"
  },
  {
    "compound": "CC1(C)S[C@@H]2[C@H](NC(=O)[C@H](N)c3ccccc3)C(=O)N2[C@H]1C(=O)O",
    "class label": "0 (no)"
  },
  {
    "compound": "C1CN(CCOCCN2CCOCC2)CCO1",
    "class label": "0 (no)"
  },
  {
    "compound": "CNCCC(Oc1ccc(C(F)(F)F)cc1)c1ccccc1 (stereo unspecified)",
    "class label": "1 (yes)"
  },
  {
    "compound": "CCC[Si](OC(C)=O)(OC(C)=O)OC(C)=O",
    "class label": "1 (yes)"
  },
  {
    "compound": "Cc1c(C(N)=O)cc([N+](=O)[O-])cc1[N+](=O)[O-]",
    "class label": "1 (yes)"
  },
  {
    "compound": "NC(N)=Nc1nc(CSCCC(N)=NS(N)(=O)=O)cs1",
    "class label": "0 (no)"
  }
]

Qu. What classification did COc1cc(CNC(=O)CCCC/C=C/C(C)C)ccc1O end up with in this test?
Ans. 0 (no)

Qu. Hello, I am checking results. What call was entered for O=[N+]([O-])c1cc(S(=O)(=O)Nc2ccccc2)ccc1Nc1ccccc1 ?
Ans. 1 (yes)

Qu. Hi, do you know how CC1(C)S[C@@H]2[C@H](NC(=O)[C@H](N)c3ccc(O)cc3)C(=O)N2[C@H]1C(=O)O came out in this test?
Ans. 0 (no)

* * *

- assay system: Cellular tumor antigen p53 (Homo sapiens) (UniProt P04637)
- Sequence (P04637 whole entry, looked up): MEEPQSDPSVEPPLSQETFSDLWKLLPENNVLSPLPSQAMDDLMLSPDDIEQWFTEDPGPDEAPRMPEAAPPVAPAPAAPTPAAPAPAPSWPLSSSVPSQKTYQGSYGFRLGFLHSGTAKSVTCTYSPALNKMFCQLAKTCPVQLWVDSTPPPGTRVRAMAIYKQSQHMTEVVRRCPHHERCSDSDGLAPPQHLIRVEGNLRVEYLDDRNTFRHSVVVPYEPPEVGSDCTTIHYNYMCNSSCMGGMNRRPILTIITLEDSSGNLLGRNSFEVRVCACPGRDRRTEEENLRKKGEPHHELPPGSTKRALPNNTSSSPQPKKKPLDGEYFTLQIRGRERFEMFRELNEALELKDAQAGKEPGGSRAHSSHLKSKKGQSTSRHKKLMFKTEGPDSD
- procedure text: TOX21_p53_BLA_p4_ratio: Tox21 HCT-116 p53 Agonism Beta-lactamase Assay, Ratio, Phase 4 (AID 2283601)
Inconclusive results are not listed. Activity calls are given as the source filed them. Rule for the calls: active = hit-call score of the fitted dose curve at least 0.9, where 1 is the maximum; inconclusive = response in the unintended direction; inactive = score below 0.9.
Lab note: assign the record to one of true (1) = active, false (0) = inactive

Known results for molecules:
[
  {
    "molecule": "CCOC(=O)[C@H](CCc1ccccc1)N[C@@H](C)C(=O)N(CC(=O)O)C1Cc2ccccc2C1",
    "assay system": "Cellular tumor antigen p53 (Homo sapiens) (UniProt P04637)",
    "class label": "false (0)"
  },
  {
    "molecule": "O=C(O)c1cccc(C(=O)O)c1C(=O)O",
    "assay system": "Cellular tumor antigen p53 (Homo sapiens) (UniProt P04637)",
    "class label": "false (0)"
  },
  {
    "molecule": "CCCCCCCCCCCCCCCC(=O)OCC(COC(=O)CCCCCCCCCCCCCCC)OC(=O)CCCCCCCCCCCCCCC",
    "assay system": "Cellular tumor antigen p53 (Homo sapiens) (UniProt P04637)",
    "class label": "false (0)"
  },
  {
    "molecule": "CC[C@H](C)COC(=O)/C=C/c1ccc(N=Cc2ccc(OC)cc2)cc1",
    "assay system": "Cellular tumor antigen p53 (Homo sapiens) (UniProt P04637)",
    "class label": "true (1)"
  },
  {
    "molecule": "NCCc1cnc[nH]1",
    "assay system": "Cellular tumor antigen p53 (Homo sapiens) (UniProt P04637)",
    "class label": "false (0)"
  }
]

Qu. Each molecule tested received a call. Report the one for O=C(c1ccc(O)cc1)c1ccc(O)c(O)c1O .
Ans. false (0)

Qu. Which result was noted for this molecule in the test: CCn1cc(C(=O)O)c(=O)c2cc(F)c(N3CCN(C)CC3)cc21
Ans. false (0)

Qu. Call for entry CC1=C(/C=C/C(C)=C\C=C\C(C)=C\C(=O)O)C(C)(C)CCC1 :
Ans. false (0)

Qu. Entry Cc1cccc(C)c1NC(=O)CC12CCCN1CCC2 : call = ?
Ans. false (0)

Qu. Write down the call the test reported for this molecule. Item: CN1CCN2c3ccccc3Cc3ccccc3C2C1 (stereo unspecified)
Ans. true (1)

Qu. Can you look up the reported call for CN(C)CCC[C@@]1(c2ccc(F)cc2)OCc2cc(C#N)ccc21 for me?
Ans. false (0)

* * *

- assay system: Transcriptional activator Myb (Homo sapiens)
- procedure text: ATG_Myb_CIS: Attagene CIS-FACTORIAL HepG2 Assay for human Myeloblastosis (Myb) Proto-Oncogene Transcription Factor (AID 2282986)
- conditions used: HepG2 Attagene CIS-FACTORIAL Myb reporter transcription; actives raise or lower the signal
The source made the active and inactive calls. The calls were made as follows: active = hit-call score of the fitted dose curve at least 0.9, where 1 is the maximum; inactive = score below 0.9.
measured attribute: outcome

Use the examples below as a reference point.
[
  {
    "smiles": "CCOC(=O)c1ccccc1",
    "assay system": "Transcriptional activator Myb (Homo sapiens)",
    "experimental result": "inactive"
  },
  {
    "smiles": "Clc1ccc(Sc2cc(Cl)c(Cl)cc2Cl)cc1",
    "assay system": "Transcriptional activator Myb (Homo sapiens)",
    "experimental result": "inactive"
  },
  {
    "smiles": "Nc1ccc(S(=O)(=O)Nc2cnc3ccccc3n2)cc1",
    "assay system": "Transcriptional activator Myb (Homo sapiens)",
    "experimental result": "inactive"
  },
  {
    "smiles": "CC/C=C\\CC/C=C/C(OCC)OCC",
    "assay system": "Transcriptional activator Myb (Homo sapiens)",
    "experimental result": "inactive"
  },
  {
    "smiles": "COc1ccc2ccccc2c1",
    "assay system": "Transcriptional activator Myb (Homo sapiens)",
    "experimental result": "inactive"
  }
]

outcome reported for this compound CC(=O)Nc1c(I)c(NC(C)=O)c(I)c(C(=O)O)c1I : inactive

For this compound ( CCCC(=O)OC/C=C(\C)CCC=C(C)C ), measured outcome is inactive

* * *

- assay system: X-box-binding protein 1 (Homo sapiens)
- procedure text: ATG_Xbp1_CIS: Attagene CIS-FACTORIAL HepG2 Assay for human X-box Binding Protein 1 (XBP1) (AID 2282972)
- conditions used: HepG2 XBP1 cis-element reporter, Attagene multiplex; actives raise or lower the signal
- Protocol: ATG_CIS is a cell-based, multiplexed-readout assay that uses HepG2, a human liver cell line, with measurements taken at 24 hours after chemical dosing in a 24-well plate.ATG_Xbp1_CIS is one of 52 assay component(s) measured or calculated from the ATG_CIS assay. […] This assay endpoint, ATG_Xbp1_CIS, was analyzed with bidirectional fitting relative to DMSO as the negative control and baseline of activity. […]
Active and inactive are the calls of the source. Rule for the calls: active = hit-call score of the fitted dose curve at least 0.9, where 1 is the maximum; inactive = score below 0.9.
Permitted responses: active, inactive

Answered cases to consult:
[
  {
    "molecule": "CC(C)(Oc1ccc(Cl)cc1)C(=O)O",
    "class label": "inactive"
  },
  {
    "molecule": "CN(C)CCCN1c2ccccc2CCc2ccc(Cl)cc21",
    "class label": "inactive"
  },
  {
    "molecule": "CCCCCCCC#N",
    "class label": "inactive"
  }
]

Qu. // outcome(item) with item = CC(=O)OC(C)(C)Cc1ccccc1
Ans. inactive

Qu. How was CCCCn1cc[n+](C)c1 classified in this test?
Ans. inactive

Qu. Can you look up the reported call for O=C(CC(C(=O)OC1CCCCC1)S(=O)(=O)O)OC1CCCCC1 (centres undefined) for me?
Ans. inactive

Qu. How did this test come out for CNC[C@H](O)[C@@H](O)[C@H](O)[C@H](O)CO ?
Ans. inactive

Qu. What classification did CCCCC(CC)COC(=O)CS (centres undefined) end up with in this test?
Ans. inactive

Qu. Dear colleague, could you share the recorded outcome for COC(=O)[C@]1(C)CCC[C@@]2(C)[C@H]1CC=C1C=C(C(C)C)CC[C@@H]12 when you have a moment?
Ans. inactive

Qu. Field: outcome | Entry: c1ccc(CNc2ncnc3nc[nH]c23)cc1
Ans. inactive

Qu. I'd appreciate the recorded outcome for Oc1cccc2ccccc12 from this test.
Ans. inactive

Qu. So what was the verdict on CCOc1ccc2c(c1)C(C)CC(C)(C)N2 (centres undefined) in this test?
Ans. inactive

Qu. What outcome does the record of this test show for CC(C)CC(=O)O ?
Ans. inactive

Qu. Can you look up the reported call for Cc1cc(C)c(S(=O)(=O)O)cc1N=Nc1cc(S(=O)(=O)O)c2ccccc2c1O for me?
Ans. inactive

Qu. For CCCc1c(OCCCCc2nn[nH]n2)ccc(C(C)=O)c1O , what call appears in the results of this test?
Ans. inactive

Qu. How did this test come out for Nc1nnc(-c2ccc([N+](=O)[O-])o2)o1 ?
Ans. inactive

Qu. Call for entry CCCC[N+]1(C)CCCC1 :
Ans. inactive

Qu. Per the records of this test, what outcome belongs to Sc1nc2ccccc2s1 ?
Ans. inactive

Qu. Can you look up the reported call for Cc1cc2nc3c(=O)[nH]c(=O)nc-3n(C[C@H](O)[C@H](O)[C@H](O)CO)c2cc1C for me?
Ans. inactive

Qu. Dear colleague, could you share the recorded outcome for CCCCCC1CCCC(=O)O1 (centres undefined) when you have a moment?
Ans. inactive
